assay_overview: Trough plasma concentration in healthy human at 400 mg, po bid after 7 days
Type: ADME, organism-based
measurement_parameters: read-out: Cmin
reported_metric: concentration at 168 h (ng/mL)
Numbers only, in ng/mL.

Fill blank: measured concentration at 168 h of the molecule COP(=O)(c1cc(C)cc(/C=C/C#N)c1)c1c(C(N)=O)[nH]c2ccc(Cl)cc12 (stereo unspecified) is ____.
2100

* * *

assay_overview: Tmax in healthy human at 800 mg, po qd after 1 day
Assay type: ADME, organism-based
measurement_parameters: in vivo
reported_metric: Tmax (h)
Give bare numbers, in h.

Fill blank: measured Tmax of the molecule COP(=O)(c1cc(C)cc(/C=C/C#N)c1)c1c(C(N)=O)[nH]c2ccc(Cl)cc12 (stereo unspecified) is ____.
4
